Values compiled from paper PMC6152131.

assay: Stability of flavonoids and biotransformation products in mouse plasma under different handling conditions; type: in vitro ADME, mice; conditions: room temperature (25 °C), 24 h; medium nominal conc. (3.50; 22.18; 2.24; 7.81 µg/mL); n = 6
Can you tell me Observed Conc. 24 h for the items I'm about to list?
Answers are plain numbers, in µg/mL.

O=C(O)Cc1ccc(O)cc1 [p-HPAA, para-hydroxyphenylacetic acid] ... 7.89
O=c1c(O)c(-c2ccc(O)cc2)oc2cc(O)cc(O)c12 ... 2.42
O=c1c(O[C@@H]2O[C@H](CO)[C@@H](O)[C@H](O)[C@H]2O)c(-c2ccc(O)c(O)c2)oc2cc(O)cc(O)c12 [Quercetin glucoside, quercetin glucoside] ... 20.44
O=C(/C=C/c1ccc(O)cc1)OC[C@H]1O[C@@H](Oc2c(-c3ccc(O)cc3)oc3cc(O)cc(O)c3c2=O)[C@H](O)[C@@H](O)[C@@H]1O [Tiliroside, tiliroside] ... 20.60
O=C(O)Cc1ccc(O)c(O)c1 [DOPAC, 3,4-dihydroxyphenylacetic acid] ... 7.78
O=C(O)Cc1cccc(O)c1 [m-HPAA, meta-hydroxyphenylacetic acid] ... 7.82

Shift focus to the following entry.
Problem: Entry `C[C@@H]1O[C@@H](Oc2c(-c3ccc(O)c(O)c3)oc3cc(O)cc(O)c3c2=O)[C@H](O)[C@H](O)[C@H]1O` has what Observed Conc. 24 h?
Solution: 23.11
